- measurement-notes: protein stability index of a GFP-peptide fusion (GPS, HEK-293T) (PSI 1-6); higher = more stable;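 further: 24-mer peptide tiles fused after GFP, lentivirally expressed, FACS-sorted into six equal bins by GFP/DsRed ratio, decoded by Illumina sequencing, PSI is the read-weighted mean bin number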
- condition-label: treatment: DMSO; c terminus: a fixed tail appended
Please go through the items and note down their protein stability index.
Give bare numbers.

Consider the worked cases shown below.
Fill blank: measured protein stability index of the sequence VKCFNDLKAEELLLKIHEVSTVSH [CASP6] is ____.
2.23

Next sequence: DYEFRVVAVNNIGRGPPSEPVLTQ [PTPRD]
3.08

Next sequence: AMAIINGSLYVFGGTTGYIYSTDL [KLHDC10]
3.16

Next sequence: GPYDPNSVRISFAKGWGPCYSRQF [SMAD6]
2.19

Next sequence: PHWLDKWMLTRKQFGLLSFFFAVL [STEAP1]
2.27

Next sequence: QQIHVVSQFKILVSLLENNIYVHD [VPS39]
3.08

Next sequence: ELERKLREVMESAVGNSSGSGQNE [FBXO28]
4.11

Next sequence: NLLLTYLIVTSLLLLPGLNQHGII [ARL6IP1]
3.32

Each of the following entries comes with a recorded value; kindly state protein stability index for each.
1. MVLSRPCHPDDQFTTSILRHWCMK [INTS3]
2. AIVRKCRQKGTGKEYAAKFIKKRR [DAPK3]
3. SFSSLEPDNEQLMEEVISPRQVSY [IQUB]
4. SSPAGLSREYKLVMLGAGGVGKSA [RIT1]

[2.21, 3.45, 4.29, 3.17]

All values here come from the supplement of paper PMC10567573.
